tested on: CCRIS mutagenicity, Ames/micronucleus/aberration tests; experiment: CCRIS mutagenicity studies; conditions: Test System: MOUSE LYMPHOMA; Strain/Indicator: L5178Y (TK+/TK-); Metabolic Activation: RAT, LIVER, S-9, AROCLOR 1254; Method: SUSPENSION/PLATE
Activity calls are given as the source filed them. No rule for the calls is given here. Where a SMILES comes first, the peptide text is derived from it. [ ]: non-standard residue; d: D form. pGlu = O=C1CC[C@@H](C(=O)O)N1; Thz = O=C(O)[C@@H]1CSCN1
Choose the fitting class; nothing outside yes (1) (active), no (0) (inactive) is accepted.

Examples with answers:
compound: N#Cc1cc(Br)c(O)c(Br)c1
classification: yes (1)

compound: O=C1c2ccc3nc(-c4ccccc4)sc3c2C(=O)c2ccc3nc(-c4ccccc4)sc3c21
classification: yes (1)

compound: COc1cc([C@@H]2c3cc4c(cc3[C@H](O)[C@H]3COC(=O)[C@H]23)OCO4)cc(OC)c1OC
classification: no (0)

compound: OCCO
classification: no (0)

compound: C=C[Si](C)(C)N[Si](C)(C)C=C
classification: no (0)

compound: C/C([O-])=C(/N=Nc1cc(S(N)(=O)=O)ccc1[O-])C(=O)Nc1ccccc1.C/C([O-])=C(\N=Nc1cc(S(N)(=O)=O)ccc1[O-])C(=O)Nc1ccccc1.[Co+2]
classification: no (0)

compound: CC[C@H](C)[C@@H]([C@@H](CC(=O)N1CCC[C@H]1[C@H](OC)[C@@H](C)C(=O)N[C@@H](Cc1ccccc1)c1nccs1)OC)N(C)C(=O)[C@@H](NC(=O)[C@H](C(C)C)N(C)C)C(C)C
classification: no (0)

compound: FC(C(F)(F)F)C(F)(F)F
classification: no (0)

Can you look up the reported call for `Nc1ccc(S(=O)(=O)Nc2nccs2)cc1` for me? no (0)

Can you look up the reported call for `Cc1ccc(N)c(O)c1` for me? yes (1)

Can you look up the reported call for `Nc1ccc2cc3ccccc3cc2c1` for me? yes (1)

Can you look up the reported call for `N#CCCNCCC#N` for me? yes (1)

Can you look up the reported call for O=C1CC[C@@H](C(=O)N2CSC[C@H]2C(=O)O)N1 ([pGlu]-[Thz]-OH) for me? no (0)

---

system: CCRIS mutagenicity, Ames/micronucleus/aberration tests; experiment: CCRIS mutagenicity studies; settings: Test System: AMES SALMONELLA TYPHIMURIUM; Strain/Indicator: TA102; Metabolic Activation: NONE; Method: PREINCUBATION
The source made the active and inactive calls. The rule behind the calls is not given here.
Choose the fitting class; nothing outside active, inactive is accepted.

Examples with answers:
molecule: O=C([O-])[C@H](O)[C@@H](O)[C@H](O)[C@H](O)CO.O=C([O-])[C@H](O)[C@@H](O)[C@H](O)[C@H](O)CO.[Cu+2]
classification: inactive
//
molecule: CNN
classification: active
//
molecule: Cl
classification: inactive

Moving on to the next molecule.
Can you look up the reported call for `O=C(S)c1ccccc1` for me? inactive

---

tested on: CCRIS mutagenicity, Ames/micronucleus/aberration tests; test: CCRIS mutagenicity studies; conditions: Test System: AMES SALMONELLA TYPHIMURIUM; Strain/Indicator: TA100; Metabolic Activation: HAMSTER, LIVER, S-9, AROCLOR 1254 (10%); Method: PREINCUBATION
Active and inactive are the calls of the source. How the calls were made is not given here.
Choose the fitting class; nothing outside yes (1) = active, no (0) = inactive is accepted.

Examples with answers:
compound: CC(=O)O
classification: no (0)
--
compound: C=CC(=O)OCC1CO1 (centres undefined)
classification: yes (1)

Can you look up the reported call for `CC/C=C/C#N` for me? no (0)

Can you look up the reported call for `Oc1ccc(Nc2ccc3ccccc3c2)cc1` for me? no (0)

Can you look up the reported call for `Cl/C=C/C[N+]12CN3CN(CN(C3)C1)C2` for me? no (0)

Can you look up the reported call for `Cc1ccc(CO)cc1` for me? no (0)

Can you look up the reported call for `Oc1ccc(Cl)cc1Cc1ccccc1` for me? no (0)

---

test system: CCRIS mutagenicity, Ames/micronucleus/aberration tests; assay: CCRIS mutagenicity studies; conditions: Test System: AMES SALMONELLA TYPHIMURIUM; Strain/Indicator: TA97; Metabolic Activation: RAT, LIVER, S-9, AROCLOR 1254; Method: STANDARD PLATE
Activity calls are given as the source filed them. No rule for the calls is given here.
Choose the fitting class; nothing outside 1 (yes) for active, 0 (no) for inactive is accepted.

compound: OC[C@H]1O[C@@H](n2cnc3c(NC[C@H](O)COc4cccc5ccccc45)ncnc32)[C@H](O)[C@@H]1O
classification: 0 (no)
--
compound: N=C1C=CC(=C(c2ccc(N)cc2)c2ccc(N)cc2)C=C1
classification: 1 (yes)
--
compound: Nc1ccc2cc3ccccc3cc2c1
classification: 1 (yes)

Can you look up the reported call for `Clc1ccncc1` for me? 0 (no)

Can you look up the reported call for `C=COC(C)=O` for me? 0 (no)

Can you look up the reported call for `ClCc1ccncc1` for me? 0 (no)

Can you look up the reported call for `[Cl][Cd][Cl]` for me? 0 (no)

Can you look up the reported call for O=C(O)C1Cc2c([nH]c3ccccc23)C(CO)N1 (stereo unspecified) for me? 0 (no)

---

system: CCRIS mutagenicity, Ames/micronucleus/aberration tests; test: CCRIS mutagenicity studies; conditions: Test System: AMES SALMONELLA TYPHIMURIUM; Strain/Indicator: TA102; Metabolic Activation: RAT LIVER S-9, AROCLOR 1254; Method: STANDARD PLATE
Calls of active or inactive are those of the source. How the calls were made is not given here.
Choose the fitting class; nothing outside YES for active, NO for inactive is accepted.

Examples with answers:
compound: CC(=O)c1cc2c(cc1C)C(C)(C)C(C)CC2(C)C (stereo not drawn)
classification: NO

compound: CCn1cc(C(=O)O)c(=O)c2cc(F)c(N3CCNCC3)cc21
classification: YES

Can you look up the reported call for CC1C(C)(C)C2=C(C(=O)CCC2)C1(C)C (stereo not drawn) for me? NO

Can you look up the reported call for `Cc1cccc(O)c1N` for me? NO

---

tested on: CCRIS mutagenicity, Ames/micronucleus/aberration tests; assay: CCRIS mutagenicity studies; conditions: Test System: AMES SALMONELLA TYPHIMURIUM; Strain/Indicator: TA100; Metabolic Activation: NONE; Method: PREINCUBATION
Active and inactive are the calls of the source. No rule for the calls is given here.
Choose the fitting class; nothing outside active, inactive is accepted.

Can you look up the reported call for `O=NN1CCOCC1` for me? inactive

Can you look up the reported call for `Cl/C=C/C[N+]12CN3CN(CN(C3)C1)C2` for me? inactive

Can you look up the reported call for `[O]=[Zr]` for me? inactive

Can you look up the reported call for `CC(=O)O[C@]1(C(C)=O)CC[C@H]2[C@@H]3C[C@H](C)C4=CC(=O)CC[C@]4(C)[C@H]3CC[C@@]21C` for me? inactive

Can you look up the reported call for `Cc1ccc2c(c1)C(=O)c1ccccc1C2=O` for me? inactive

Can you look up the reported call for `O=C/C(CCl)=C(/Cl)C(=O)O` for me? active

Can you look up the reported call for `Nc1ncnc2c1ncn2-c1cccc([N+](=O)[O-])c1` for me? active

Can you look up the reported call for CCCCCCCCCCCCCCCCCC(=O)NCCCC[C@@H](NC(=O)CC[C@@H](NC(=O)[C@H](C)NC(=O)[C@@H](C)O[C@H]1[C@H](O)[C@@H](CO)OC(O)[C@@H]1NC(C)=O)C(N)=O)C(=O)O (stereo partly drawn) for me? inactive

Can you look up the reported call for `CCCCCCCCOc1ccc(C(=O)O)cc1` for me? inactive

---

tested on: CCRIS mutagenicity, Ames/micronucleus/aberration tests; assay: CCRIS mutagenicity studies; settings: Test System: AMES SALMONELLA TYPHIMURIUM; Strain/Indicator: TA1537; Metabolic Activation: HAMSTER, LIVER, S-9, AROCLOR 1254; Method: PREINCUBATION
Calls of active or inactive are those of the source. No rule for the calls is given here.
readout: mutagenic call

Worked set:
molecule: C=CCOC(=O)CC(C)C
experimentalSystem: CCRIS mutagenicity, Ames/micronucleus/aberration tests
mutagenic call: inactive; negative
//
molecule: CCC1CO1 (stereo unspecified)
experimentalSystem: CCRIS mutagenicity, Ames/micronucleus/aberration tests
mutagenic call: inactive; negative
//
molecule: C[Si](C)(C)Cl
experimentalSystem: CCRIS mutagenicity, Ames/micronucleus/aberration tests
mutagenic call: inactive; negative
//
molecule: C=CC(=O)OCC
experimentalSystem: CCRIS mutagenicity, Ames/micronucleus/aberration tests
mutagenic call: inactive; negative
//
molecule: Oc1ccc(Cl)c(Cl)c1
experimentalSystem: CCRIS mutagenicity, Ames/micronucleus/aberration tests
mutagenic call: inactive; negative
//
molecule: Cc1ccc(C)cc1
experimentalSystem: CCRIS mutagenicity, Ames/micronucleus/aberration tests
mutagenic call: inactive; negative
//
molecule: CC(O)c1ccccc1 (stereo unspecified)
experimentalSystem: CCRIS mutagenicity, Ames/micronucleus/aberration tests
mutagenic call: inactive; negative
//
molecule: COc1cccc(N)c1
experimentalSystem: CCRIS mutagenicity, Ames/micronucleus/aberration tests
mutagenic call: inactive; negative

GET /values?readout=mutagenic call&system=CCRIS mutagenicity, Ames/micronucleus/aberration tests&item= `Cc1cc(=O)oc2cc(O)ccc12` inactive; negative

GET /values?readout=mutagenic call&system=CCRIS mutagenicity, Ames/micronucleus/aberration tests&item= `Nc1c(Br)cc(Br)c2c1C(=O)c1ccccc1C2=O` inactive; negative

GET /values?readout=mutagenic call&system=CCRIS mutagenicity, Ames/micronucleus/aberration tests&item= `O=[N+]([O-])c1cc(Cl)c(Cl)c(Cl)c1Cl` inactive; negative
